molecular target: recombinant human PAI-1 (Homo sapiens); construct: purchased Molecular Innovations, Inc; assay: Test Example 2: human PAI-1 inhibitory activity (tPA fluorogenic substrate, pH 7.4 HEPES buffer); type: biochemical; details: human PAI-1; calculated from the inhibition rates
Sequence (P05121 24-402): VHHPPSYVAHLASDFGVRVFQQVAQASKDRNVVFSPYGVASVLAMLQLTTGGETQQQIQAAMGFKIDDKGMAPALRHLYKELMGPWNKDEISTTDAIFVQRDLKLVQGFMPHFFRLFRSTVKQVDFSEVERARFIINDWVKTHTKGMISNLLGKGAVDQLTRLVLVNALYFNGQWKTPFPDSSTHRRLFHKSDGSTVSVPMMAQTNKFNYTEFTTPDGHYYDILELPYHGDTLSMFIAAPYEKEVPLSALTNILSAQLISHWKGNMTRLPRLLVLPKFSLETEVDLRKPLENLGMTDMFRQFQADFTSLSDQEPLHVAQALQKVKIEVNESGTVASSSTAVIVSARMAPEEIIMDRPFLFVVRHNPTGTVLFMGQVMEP
Parameter Measured: IC50 (nM)

// below: answered molecules
> print(dat)
                                   molecule  parameter.measured  units.label  numeric.value
1  CCCCC(Oc1ccc(-c2ccc(OC(F)(F)F)cc2)cc1Oc1ccc(C(C)(C)C)cc1)C(=O)O (stereo not shown) [Compound 305]                IC50           nM            940
2  CC(C)(C)c1ccc(Oc2cc(Oc3ccc(OC(F)(F)F)cc3)ccc2CCC(=O)O)cc1 [Compound 90]                IC50           nM           1350
3  CCCCC(Oc1cc(-c2ccc(OC(F)(F)F)cc2)ccc1OCCCCc1ccc(Cl)cc1)C(=O)O (stereo not shown) [Compound 325]                IC50           nM            580
4  CCCCC(Oc1ccc(-c2cccc(C(F)(F)F)c2)cc1Oc1ccc(C(C)(C)C)cc1)C(=O)O (stereo not shown) [Compound 320]                IC50           nM            740
5  CC(C)(C)c1cccc(Oc2cc(-c3ccc(OC(F)(F)F)cc3)ccc2/C=C/C(=O)O)c1 [Compound 335]                IC50           nM            740
6  CCCCC(Oc1cc(-c2cccc(C)c2)ccc1Oc1ccc(C(C)(C)C)cc1)C(=O)O (stereo not shown) [Compound 317]                IC50           nM            650

(1) CC(C)(Oc1c(Oc2ccc(C(C)(C)C)cc2)cccc1-c1ccc(OC(F)(F)F)cc1)C(=O)O [Compound 251]
(2) CCCCC(Oc1cc(-c2cccc(C(F)(F)F)c2)ccc1Oc1ccc(C(C)(C)C)cc1)C(=O)O (stereo not shown) [Compound 318]
Prompt: Could you check which of 1 and 2 has a smaller value for IC50? Field: selected label. Fill in the label of the entry you choose.
Response: 2
(2: 580 nM, 1: 1350 nM)
